- Measured on: human GLP-1 receptor (human, UniProt P43220 24-463)
- Sequence (P43220 24-463): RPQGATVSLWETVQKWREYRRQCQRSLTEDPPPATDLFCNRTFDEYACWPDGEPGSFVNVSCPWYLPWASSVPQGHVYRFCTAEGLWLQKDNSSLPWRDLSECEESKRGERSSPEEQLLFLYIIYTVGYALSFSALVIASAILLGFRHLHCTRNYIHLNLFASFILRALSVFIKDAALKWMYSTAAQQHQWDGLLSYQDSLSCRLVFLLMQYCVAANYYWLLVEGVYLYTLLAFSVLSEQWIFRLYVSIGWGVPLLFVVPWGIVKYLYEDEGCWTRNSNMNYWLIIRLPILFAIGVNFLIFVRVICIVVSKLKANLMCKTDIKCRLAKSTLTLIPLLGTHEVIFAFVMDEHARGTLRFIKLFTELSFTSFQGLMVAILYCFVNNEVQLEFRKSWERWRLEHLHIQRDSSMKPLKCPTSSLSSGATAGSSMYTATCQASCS
- Test protocol: cell-based or functional assay
Starred links: 1 amine or outer side, 2 acyl side, 3 side chain; linkers in the order of their positions; H or OH if unused. Non-standard residues stand in square brackets, D forms with d. No end group written: not given here. AMCB = 2-amino-5-(4-chloro-2-methylphenyl)pentanoic acid, Cc1cc(Cl)ccc1CCC[C@H](N[*:1])C(=O)[*:2]; 2Cl,4OMe‑APPA = 2-amino-5-(2-chloro-4-methoxyphenyl)pentanoic acid; Bip(2'-Et-4'-OMe) = CCc1cc(OC)ccc1-c1ccc(C[C@H](N)C(=O)O)cc1; Leu(5,5,5,5',5',5'-F6) = N[C@@H](CC(C(F)(F)F)C(F)(F)F)C(=O)O; Nva(5-(3,5-Me2Ph)) = Cc1cc(C)cc(CCC[C@H](N)C(=O)O)c1; 2F‑APPA = 2-amino-5-(2-fluorophenyl)pentanoic acid; αMePhe(2-F) = C[C@](N)(Cc1ccccc1F)C(=O)O; hhPhe = N[C@@H](CCCc1ccccc1)C(=O)O; αMeF = C[C@](N)(Cc1ccccc1)C(=O)O; aThr = C[C@H](O)[C@H](N)C(=O)O; CNB = not defined here; Aib = CC(C)(N)C(=O)O
cAMP release, % activity, 10 µM for assorted binders
Output spec: scalar in %, unitless text.

H[Aib][Leu(5,5,5,5',5',5'-F6)]GT[αMePhe(2-F)][aThr]SD[Bip(2'-Et-4'-OMe)][2F‑APPA] [Seq. ID. No. 224: H-Aib-(Hfl)-GT-(α-Me-2F-Phe)-T(allo)-SD-Bip(OMe)-(2F-APPA)]    99
H[Aib][CNB]GT[αMePhe(2-F)][aThr]SD[Bip(2'-Et-4'-OMe)][2F‑APPA] (reading uncertain) [Seq. ID. No. 120: H-Aib-(CNB)-GT-(α-Me-2F-Phe)-T(allo)-SD-Bip(OMe)-(2F-APPA)]    99
H[Aib][CNB]G[aThr][αMePhe(2-F)][aThr]SD[Bip(2'-Et-4'-OMe)][hhPhe] (reading uncertain; also: reduced (CH2) bonds between 9-10 and 10-11) [Seq. ID. No. 202: H-Aib-(CNB)-G-T(allo)-(α-Me-2F-Phe)-T(allo)-SD-(CH2)-Bip(OMe)-(CH2)-(APPA)]    99
H[Aib]QGT[αMePhe(2-F)]TSD[Bip(2'-Et-4'-OMe)][AMCB] [Seq. ID. No. 40: H-Aib-QGT-(α-Me-2F-Phe)-TSD-Bip(OMe)-(AMCB)]    97
H[Aib][Leu(5,5,5,5',5',5'-F6)]GT[αMeF]TSD[Bip(2'-Et-4'-OMe)][hhPhe] [Seq. ID. No. 230: H-Aib-(Hfl)-GT-(α-Me-Phe)-TSD-Bip(OMe)-(APPA)]    99
H[Aib][CNB]GTFTSD[Bip(2'-Et-4'-OMe)][2Cl,4OMe‑APPA] (reading uncertain) [Seq. ID. No. 84: H-Aib-(CNB)-GTFTSD-Bip(OMe)-(2Cl,4OMe-APPA)]    97
H[Aib][Leu(5,5,5,5',5',5'-F6)]G[aThr][αMePhe(2-F)][aThr]SD[Bip(2'-Et-4'-OMe)][2F‑APPA] (also: thioamide (C═S) bonds Z9-Z10 and Z10-Z11) [Seq. ID. No. 216: H-Aib-(Hfl)-G-T(allo)-(α-Me-2F-Phe)-T(allo)-SD-(C═S)-Bip(OMe)-(C═S)-(2F-APPA)]    99
H[Aib][CNB]GTFTSD[Bip(2'-Et-4'-OMe)][Nva(5-(3,5-Me2Ph))] (reading uncertain) [Seq. ID. No. 30: H-Aib-(CNB)-GTFTSD-Bip(OMe)-(ADMP)]    98

Incoming: cAMP release, % activity, 10 µM for H[Aib][CNB]G[aThr][αMePhe(2-F)][aThr]SD[Bip(2'-Et-4'-OMe)][2F‑APPA] (reading uncertain; also: thioamide bonds between residues 9-10 and 10-11) [Seq. ID. No. 180: H-Aib-(CNB)-G-T(allo)-(α-Me-2F-Phe)-T(allo)-SD-(C═S)-Bip(OMe)-(C═S)-(2F-APPA)] ?
Outgoing: 99
